// provenance: ChEMBL document CHEMBL1201862

- Test system: UACC-257
- experimentSummary: NCI tumour cell line growth inhibition, 48 h
Activity calls are given as the source filed them. Rule as the data show it: active = GI50 up to about 1.1 µM and inactive = higher.
quantity: GI50

Answered cases to consult:
molecule: NNC(=O)c1ccccc1Nc1nc(-c2cccs2)nc2ccc(Br)cc12
systemName: UACC-257
GI50: > 100 µM (inactive)
--
molecule: CC1(C)C[C@H](O)[C@H](O)[C@]23C(=O)O[C@H](O)[C@H]2C(C=O)=CC[C@@H]13
systemName: UACC-257
GI50: > 100 µM (inactive)
--
molecule: C=C1CC2CC[C@@]34C[C@H]5O[C@@H]6C(O[C@H]7CC[C@H](CC(=O)OC8[C@H](C)C9OC%10C[C@]%11(C[C@@H]%12O[C@]%13(C[C@H](C)[C@@H]%14O[C@H]([C@H](O)C[C@H](O)CO)C[C@@H]%14O%13)C[C@H](C)[C@@H]%12O%11)OC%10CC9O[C@H]8C[C@H]8O[C@H](CC[C@@H]1O2)C[C@@H](C)C8=C)O[C@H]7[C@@H]6O3)[C@@H]5O4 (some centres undefined)
systemName: UACC-257
GI50: 0.0008 µM (active)

Proceed to the following item.
For the molecule c1ccc([B-]2(c3ccccc3)OCCc3cccc[n+]32)cc1 , what GI50 is on record? 80.7 µM (inactive)

* * *

- System: A498
- experimentSummary: NCI tumour cell line growth inhibition, 48 h
Activity calls are given as the source filed them. Cut-off read from the data, not from the text of the source: active = GI50 up to about 1.1 µM and inactive = higher.
quantity: GI50

For the compound COc1c(Br)cc2ccccc2c1-c1c(OC)c(Br)cc2ccccc12 , what GI50 is on record? > 100 µM (inactive)

For the compound CC/C=C\C/C=C\C/C=C\CCCCCCCC(=O)OCC , what GI50 is on record? > 100 µM (inactive)

* * *

- System: OVCAR-5
- experimentSummary: NCI tumour cell line growth inhibition, 48 h
Active and inactive are the calls of the source. Rule as the data show it: active = GI50 up to about 1.1 µM and inactive = higher.
quantity: GI50

compound: Cc1ccc(C)c(NC2=NC(=O)C(CC(=O)Nc3ccc(Cl)cc3Cl)S2)c1 (centres undefined)
quantity: GI50
obsValue: > 100 µM (inactive)
--
compound: COc1c(OC/C=C(\C)CCC=C(C)C)ccc2ccc(=O)oc12
quantity: GI50
obsValue: > 100 µM (inactive)
--
compound: COC(=O)C1CCC(=O)N1C(c1ccc(OC)cc1)c1ccc2c(c1)OCO2 (centres undefined)
quantity: GI50
obsValue: 50 µM (inactive)
--
compound: CN1C=C(C(N)=O)Cc2ccsc21
quantity: GI50
obsValue: > 100 µM (inactive)
--
compound: C/C(=N\NC(=S)Nc1ccc(C(=O)O)cc1)c1ccccn1
quantity: GI50
obsValue: 21.3 µM (inactive)
--
compound: CN(N=O)C(=O)N(N)CCCCC(NC(=O)OCc1ccccc1)C(=O)OCc1ccccc1 (centres undefined)
quantity: GI50
obsValue: > 100 µM (inactive)
--
compound: C#CC1(O)C(COP(=O)(O)OC(COCCCCCCCCCCCCCCCCCC)COP(=O)(O)OCC2OC(n3cc(C)c(=O)[nH]c3=O)CC2N=[N+]=[N-])OC(n2ccc(N)nc2=O)C1O (centres undefined)
quantity: GI50
obsValue: 3.28 µM (inactive)
--
compound: S=P1(Oc2ccccc2)NNP2(=NP(N3CC3)(N3CC3)=NP(N3CC3)(N3CC3)=N2)NN1 (centres undefined)
quantity: GI50
obsValue: > 100 µM (inactive)

Proceed to the following item.
For the compound COc1cc2c(cc1OC)C1=C(C=O)c3ccc(OC)c(OC)c3C(O)N1CC2 (centres undefined) , what GI50 is on record? 31.7 µM (inactive)
